The values you see were collected from paper PMC3325190.

- test system: T1, AmrZ WT (Pseudomonas aeruginosa PAO1, UniProt G3XCY4 1-108)
- T1 sequence: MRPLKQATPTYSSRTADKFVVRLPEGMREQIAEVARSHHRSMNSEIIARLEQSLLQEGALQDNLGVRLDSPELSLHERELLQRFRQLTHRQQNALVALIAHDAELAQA
- assay summary: fluorescence anisotropy
- experimental parameters: protein: recombinant; tags: N-terminal poly-His with 3C site, cleaved by PreScission; chain copies: 4; blunt
// returns NO unless Kd is strictly below 200 nM, in which case YES

> print(dat)
                                     binder  assigned.category
1  TTC amrZ1 (dsDNA) DNA 1: GTACTTTCAAAACGAAGGCACG DNA 2: CGTGCCTTCGTTTTGAAAGTAC                YES
2  CGCG amrZ1 (dsDNA) DNA 1: GTACTGGCCGCGCGCCGGCACG DNA 2: CGTGCCGGCGCGCGGCCAGTAC                YES
3  m13 algD (dsDNA) DNA 1: CATTGGCCATTAACAGCCTCCC DNA 2: GGGAGGCTGTTAATGGCCAATG                 NO
4  GTC amrZ1 (dsDNA) DNA 1: GTACTGTCAAAACGACGGCACG DNA 2: CGTGCCGTCGTTTTGACAGTAC                YES
5  m14 algD (dsDNA) DNA 1: CATTGGCCATTACAAGCCTCCC DNA 2: GGGAGGCTTGTAATGGCCAATG                 NO
